src = ChEMBL document CHEMBL2311414

test system: HeLa; experiment: Cytotoxicity against human HeLa cells after 48 hrs by MTT assay; format: functional, cell-based
Reported values of IC50 for individual entries

# CHEMICAL_SMILES, UNIT_TAG, IC50
records = [
    ("COc1cc(/C=C2\\CC/C(=C\\c3ccc(OCCCCN4CCCCCC4)c(OC)c3)C2=O)ccc1OCCCCN1CCCCCC1", "nM", 1390),
    ("COc1cc(/C=C2\\CC/C(=C\\c3ccc(OCCCCN4CCOCC4)c(OC)c3)C2=O)ccc1OCCCCN1CCOCC1", "nM", 720),
    ("COc1cc(/C=C2\\CC/C(=C\\c3ccc(OCCn4ccnc4C)c(OC)c3)C2=O)ccc1OCCn1ccnc1C", "nM", 900),
]
